Value source: patent US20230303994

target: pre-pro-human insulin
measurementName: Selectivity

Worked cases, answers included:
protein	measurementName	observedValue
trypsin variant SEQ ID NO: 115 (protein) IVGGYTCAANSIPYQVSLNSGSHRCGGSLINSQWVVSAAHCYKPRIQVRLGEHNIHVLEGNEQFINAAKIITHPNFNGNTLDNDIMLIKLSSPATLNSNVATVSLPTSCAAAGTECLISGWGNTSSSGSSMPSLLQCLKAPVLSDSSCKSSYPGQITGNMICVGFLEGGKDACQGDSGGPVVCNGQLQGIVSSGYGCAQKNKPGVYTKVCNYVNWIQQTIAAN	Selectivity	>90%
trypsin variant SEQ ID NO: 47 (protein) IVGGYTCAANSIPYQVSLNSGSHICGGSLINSQWVVSAAHCYKSRIQVRLGEHNIDVLEGNEQFINAAKIITHPNFNGNTLDNDIMLIKLSSPATLNSRVATVSLPRSCAAAGTECLISGWGNTKSSGSSYPSLLQCLKAPVLSDSSCKSSYPGQITGNMICVGFLEGGKDACQGDSGGPVVCNGQLQGIVSSGYGCAQKNKPGVYTKVCNYVNWIQQTIAAN	Selectivity	>90%
trypsin variant SEQ ID NO: 26 (protein) IVGGYTCAANSIPYQVSLNSGSHRCGGSLINSQWVVSAAHCYKSRIQVRLGEHNIDVLEGNEQFINAAKIITHPNFNGNTLDNDIMLIKLSSPATLNSRVATVSLPRSCAAAGTECLISGWGNTKSSGSSYPSLLQCLKAPVLSDSSCKSSYPGQITGNMICVGFLEGGGDACQGDSGGPVVCNGQLQGIVSSGYGCAQKNKPGVYTKVCNYVNWIQQTIAAN	Selectivity	>80%
trypsin variant SEQ ID NO: 113 (protein) IVGGYTCAANSIPYQVSLNSGSHRCGGSLINSQWVVSAAHCYKPRIQVRLGEHNIHVLEGNEQFINAAKIITHPNFNGNTLDNDIMLIKLSSPATLNSAVATVSLPTSCAAAGTECLISGWGNTASSGSSYPSLLQCLKAPVLSDSSCKSSYPGQITGNMICVGFLEGGADACQGDSGGPVVCNGQLQGIVSSGYGCAQKNKPGVYTKVCNYVNWIQQTIAAN	Selectivity	>90%

Okay, now this protein:
Which Selectivity is reported for this protein? trypsin variant SEQ ID NO: 17 (protein) IVGGYTCAANSIPYQVSLNSGSHRCGGSLINSQWVVSAAHCYKSRIQVRLGEHNIDVLEGNEQFINAAKIITHPNFNGNTLDNDIMLIKLSSPATLNSRVATVSLPRSCAAAGTECLISGWGNTYSSGSSYPSLLQCLKAPVLSDSSCKSSYPGQITGNMICVGFLEGGKDACQGDSGGPVVCNGQLQGIVSSGYGCAQKNKPGVYTKVCNYVNWIQQTIAAN >80%
